The measurements presented in this section are drawn from ChEMBL document CHEMBL1156105.

Test: Metabolic stability in 10% human plasma assessed as half life at pH 7.4 by RP-HPLC
Attribute: half-life
A complete answer gives the number followed by the unit.

Below are worked cases with known answers.
CC(=O)Oc1ccccc1C(=O)O[C@H]1CO[C@H]2[C@@H]1OC[C@H]2OC(=O)c1cccc(CO[N+](=O)[O-])c1 ... 2.6 min
CC(=O)Oc1ccccc1C(=O)O[C@H]1CO[C@H]2[C@@H]1OC[C@H]2O[N+](=O)[O-] ... 0.867 min

We now examine a further compound.
Param item = "CC(=O)Oc1ccccc1C(=O)O[C@H]1CO[C@H]2[C@@H]1OC[C@H]2OC(=O)c1ccccc1" ; retrieve measured half-life. 3.3 min

###

System: Plasma
Assay: Metabolic stability in 10% human plasma assessed as aspirin release at pH 7.4 by RP-HPLC; also: time not given here
Format: ADME, cell-free
Mark TRUE for Activity under 40%, FALSE if at or over.

Recorded results for 6 molecules are shown here.
CC(=O)Oc1ccccc1C(=O)O[C@H]1CO[C@H]2[C@@H]1OC[C@H]2OC(=O)c1snnc1C ... TRUE
CC(=O)Oc1ccccc1C(=O)O[C@H]1CO[C@H]2[C@@H]1OC[C@H]2OC(=O)c1ccccc1C ... FALSE
COc1ccccc1C(=O)O[C@@H]1CO[C@H]2[C@@H]1OC[C@@H]2OC(=O)c1ccccc1OC(C)=O ... TRUE
CC(=O)Oc1ccccc1C(=O)O[C@H]1CO[C@H]2[C@@H]1OC[C@H]2OC(=O)c1cccc(CO[N+](=O)[O-])c1 ... FALSE
CC(=O)Oc1ccccc1C(=O)O[C@H]1CO[C@H]2[C@@H]1OC[C@H]2OC(=O)c1ccc(C)cc1 ... TRUE
CC(=O)Oc1ccccc1C(=O)O[C@H]1CO[C@H]2[C@@H]1OC[C@H]2OC(=O)c1cccc(C)c1 ... TRUE

Item "CC(=O)Oc1ccccc1C(=O)O[C@H]1CO[C@H]2[C@@H]1OC[C@H]2OC(=O)c1ccc(O)cc1" : Activity beneath 40%, strictly? TRUE

###

System: Plasma
Test: Metabolic stability in 50% human plasma assessed as aspirin release at pH 7.4 by RP-HPLC; also: time not given here
Format: ADME, cell-free
Attribute: Activity
# output: bare number, implied unit %

Below are worked cases with known answers.
CC(=O)Oc1ccccc1C(=O)O[C@H]1CO[C@H]2[C@@H]1OC[C@H]2OC(=O)c1cccnc1 ... 32
COc1ccccc1C(=O)O[C@@H]1CO[C@H]2[C@@H]1OC[C@@H]2OC(=O)c1ccccc1OC(C)=O ... 7
CC(=O)Oc1ccccc1C(=O)O[C@H]1CO[C@H]2[C@@H]1OC[C@H]2OC(=O)c1cccc(C)c1 ... 54
CC(=O)Oc1ccccc1C(=O)O[C@H]1CO[C@H]2[C@@H]1OC[C@H]2OC(=O)c1ccccc1OC(=O)c1ccccc1 ... 19
CC(=O)Oc1ccccc1C(=O)O[C@H]1CO[C@H]2[C@@H]1OC[C@H]2OC(=O)c1cccc(O)c1 ... 29

Param item = "CC(=O)Nc1cccc(C(=O)O[C@@H]2CO[C@H]3[C@@H]2OC[C@@H]3OC(=O)c2ccccc2OC(C)=O)c1" ; retrieve measured Activity. 11

Param item = "CC(=O)Oc1ccccc1C(=O)O[C@H]1CO[C@H]2[C@@H]1OC[C@H]2OC(=O)c1cc(C)nc(Cl)c1" ; retrieve measured Activity. 14

Param item = "CC(=O)Oc1ccccc1C(=O)O[C@H]1CO[C@H]2[C@@H]1OC[C@H]2OC(=O)c1ccncc1" ; retrieve measured Activity. 27

###

Test system: Plasma
Assay: Metabolic stability in 50% human plasma assessed as aspirin release at pH 7.4 by RP-HPLC; also: time not given here
Assay type: ADME, cell-free
Attribute: Activity
# output: bare number, implied unit %

CC(=O)Oc1ccccc1C(=O)O[C@H]1CO[C@H]2[C@@H]1OC[C@H]2OC(=O)c1ccnn1C ... 6

Any idea what Activity came out for "CC(=O)Oc1ccccc1C(=O)O[C@H]1CO[C@H]2[C@@H]1OC[C@H]2OC(=O)c1ccccc1C" on Plasma? 59

Any idea what Activity came out for "CC(=O)Oc1ccccc1C(=O)O[C@H]1CO[C@H]2[C@@H]1OC[C@H]2OC(=O)c1ccccc1O" on Plasma? 85

Any idea what Activity came out for "CC(=O)Oc1ccccc1C(=O)O[C@H]1CO[C@H]2[C@@H]1OC[C@H]2O[N+](=O)[O-]" on Plasma? 7.7

Any idea what Activity came out for "CC(=O)Oc1ccccc1C(=O)O[C@H]1CO[C@H]2[C@@H]1OC[C@H]2OC(=O)c1ccccc1CO[N+](=O)[O-]" on Plasma? 34

###

System: Plasma
Experiment: Metabolic stability in 50% human plasma assessed as aspirin release at pH 7.4 by RP-HPLC; also: time not given here
Format: ADME, cell-free
readout_kind: Activity (%)
# output: bare number, implied unit %

Below are worked cases with known answers.
CC(=O)Oc1ccccc1C(=O)O[C@H]1CO[C@H]2[C@@H]1OC[C@H]2OC(=O)c1cnoc1C ... 14
CC(=O)Oc1ccccc1C(=O)O[C@H]1CO[C@H]2[C@@H]1OC[C@H]2OC(=O)c1cccc(CO[N+](=O)[O-])c1 ... 55
CC(=O)Oc1ccccc1C(=O)O[C@H]1CO[C@H]2[C@@H]1OC[C@H]2OC(=O)c1snnc1C ... 31
CC(=O)Oc1ccccc1C(=O)O[C@H]1CO[C@H]2[C@@H]1OC[C@H]2OC(=O)c1ccc([N+](=O)[O-])cc1 ... 22
CC(=O)Oc1ccccc1C(=O)O[C@H]1CO[C@H]2[C@@H]1OC[C@H]2OC(=O)c1ccc(O)cc1 ... 0.5
CCC(=O)O[C@@H]1CO[C@H]2[C@@H]1OC[C@@H]2OC(=O)c1ccccc1OC(C)=O ... 7

Any idea what Activity came out for "CC(=O)Oc1ccccc1C(=O)O[C@H]1CO[C@H]2[C@@H]1OC[C@H]2OC(=O)c1ccc(C)cc1" on Plasma? 14.7

Any idea what Activity came out for "CC(=O)Oc1ccccc1C(=O)O[C@H]1CO[C@H]2[C@@H]1OC[C@H]2OC(=O)c1cnccc1Cl" on Plasma? 17

Any idea what Activity came out for "COc1ccc(C(=O)O[C@@H]2CO[C@H]3[C@@H]2OC[C@@H]3OC(=O)c2ccccc2OC(C)=O)cc1" on Plasma? 4

Any idea what Activity came out for "CC(=O)Oc1ccccc1C(=O)O[C@H]1CO[C@H]2[C@@H]1OC[C@H]2OC(=O)c1ccccc1" on Plasma? 29

Any idea what Activity came out for "CC(=O)Oc1ccccc1C(=O)O[C@H]1CO[C@H]2[C@@H]1OC[C@H]2OC(C)=O" on Plasma? 1.3

Any idea what Activity came out for "COc1cccc(C(=O)O[C@@H]2CO[C@H]3[C@@H]2OC[C@@H]3OC(=O)c2ccccc2OC(C)=O)c1" on Plasma? 17

###

Attribute: half-life
Experiment: Metabolic stability in 10% human plasma assessed as half life at pH 7.4 by RP-HPLC

Param item = "COc1ccc(C(=O)O[C@@H]2CO[C@H]3[C@@H]2OC[C@@H]3OC(=O)c2ccccc2OC(C)=O)cc1" ; retrieve measured half-life. 3.15 min

Param item = "COc1ccccc1C(=O)O[C@@H]1CO[C@H]2[C@@H]1OC[C@@H]2OC(=O)c1ccccc1OC(C)=O" ; retrieve measured half-life. 3.47 min

Param item = "CC(=O)Oc1ccccc1C(=O)O[C@H]1CO[C@H]2[C@@H]1OC[C@H]2O" ; retrieve measured half-life. 3.3 min

###

Test: Metabolic stability in 50% human plasma assessed as half life at pH 7.4 by RP-HPLC
Attribute: half-life

CC(=O)Oc1ccccc1C(=O)O[C@H]1CO[C@H]2[C@@H]1OC[C@H]2OC(=O)c1ccc(-c2ccccc2)cc1 ... > 1200 s
CC(=O)Oc1ccccc1C(=O)O[C@H]1CO[C@H]2[C@@H]1OC[C@H]2O[N+](=O)[O-] ... 11.3 s

Param item = "COc1ccccc1C(=O)O[C@@H]1CO[C@H]2[C@@H]1OC[C@@H]2OC(=O)c1ccccc1OC(C)=O" ; retrieve measured half-life. 59.4 s

###

Test system: Plasma
Assay: Metabolic stability in 10% human plasma assessed as aspirin release at pH 7.4 by RP-HPLC; also: time not given here
Format: ADME, cell-free
readout_kind: Activity (%)
# output: bare number, implied unit %

CC(=O)Oc1ccccc1C(=O)O[C@H]1CO[C@H]2[C@@H]1OC[C@H]2OC(=O)c1cc(C)nc(Cl)c1 ... 24
CC(=O)Oc1ccccc1C(=O)O[C@H]1CO[C@H]2[C@@H]1OC[C@H]2OC(=O)c1cnccc1Cl ... 18

We now examine a further compound.
Any idea what Activity came out for "CC(=O)Oc1ccccc1C(=O)O[C@H]1CO[C@H]2[C@@H]1OC[C@H]2O[N+](=O)[O-]" on Plasma? 9.1

###

Attribute: Activity
System: Plasma
Assay: Metabolic stability in 50% human plasma assessed as aspirin release at pH 7.4 by RP-HPLC; also: time not given here
Assay type: ADME, cell-free

Below are worked cases with known answers.
CC(=O)Oc1ccccc1C(=O)O[C@H]1CO[C@H]2[C@@H]1OC[C@H]2OC(=O)c1ccc(C#N)cc1 ... < 0.5%
CCCCC(=O)O[C@@H]1CO[C@H]2[C@@H]1OC[C@@H]2OC(=O)c1ccccc1OC(C)=O ... < 0.5%

We now examine a further compound.
Param item = "CC(=O)Oc1ccccc1C(=O)O[C@H]1CO[C@H]2[C@@H]1OC[C@H]2OC(=O)c1ccc(-c2ccccc2)cc1" ; retrieve measured Activity. < 0.5%
